As shown below, each of these sequences has a reported PBM binding z-score value.
- Test system: VDR:RXRa (NR concentration 270 nM, RXRa partner concentration 90 nM)
- experiment: PBM binding z-score (relative to random genomic background probes); higher = stronger binding; sequences stand for … in GC…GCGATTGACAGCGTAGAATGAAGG
measurement.kind: PBM binding z-score

1) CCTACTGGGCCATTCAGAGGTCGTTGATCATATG ... 1.49
2) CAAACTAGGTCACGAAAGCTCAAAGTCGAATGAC ... 2.37
3) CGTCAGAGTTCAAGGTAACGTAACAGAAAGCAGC ... 4.23
4) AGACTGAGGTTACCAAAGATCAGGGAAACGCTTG ... 1.13
5) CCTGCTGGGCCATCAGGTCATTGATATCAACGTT ... 1.59
6) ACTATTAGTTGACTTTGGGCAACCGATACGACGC ... 0.238
7) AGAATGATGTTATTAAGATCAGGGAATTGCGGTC ... 0.0323
8) CATGCTAGGTCATGGTCAGCTAATCTACAGTATG ... 1.79
